study.target: T1, recombinant human domain 1-3His6 of the cation-independent mannose-6-phosphate receptor (human, UniProt P11717 41-467)
T1 construct: Biotinylated (NHS-PEG4-biotin) for BLI; Glycosylated; also called hDom1-3His6; hCI-M6PRD1-D3
measurement.description: BLI at pH 7.4, 1st of 2 repeats
pKd: −log10 of the molar value.
parameter: pKd

| binder | pKd |
| --- | --- |
| anti-CI-M6PR VHH11 (VHH, His6-tagged; made in Pichia pastoris) VHH: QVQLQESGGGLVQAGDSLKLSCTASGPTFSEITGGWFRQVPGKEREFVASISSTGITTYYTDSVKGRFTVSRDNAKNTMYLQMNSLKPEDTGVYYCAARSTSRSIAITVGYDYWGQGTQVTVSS | 7.38 |
| anti-CI-M6PR VHH10 (VHH, His6-tagged; made in Pichia pastoris) VHH: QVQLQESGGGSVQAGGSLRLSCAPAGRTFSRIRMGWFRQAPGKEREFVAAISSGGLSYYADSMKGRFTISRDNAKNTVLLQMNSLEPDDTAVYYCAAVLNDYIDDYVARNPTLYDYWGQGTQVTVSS | 7.33 |
